Listing: Kd of selected compounds
System: RSK4(Kin.Dom.2-C-terminal);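 further: kd values determined as follow-up on hits from a single-replicate KINOMEscan panel screen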
Construct: gene RPS6KA6
Numeric answer only, unit nM assumed.

# cpd-smiles, test-target, Kd / nM
rows = [
    ("Fc1ccc(-c2nc3n(c2-c2ccncc2)CCS3)cc1", "RSK4(Kin.Dom.2-C-terminal)", 260),
]

Look up Kd for this compound: Fc1ccc(-c2nc[nH]c2-c2ccncc2)cc1
310

###

Tested on: SRPK2
Details: concentration: 1 μM, replicates: in singlicate; n = 1
metric: %Inh (%)
The response must be a number in % with no trailing unit.

# get_value(readout='%Inh', item= CC(C)c1ccc(O)cc1Nc1ccnc2ccc(C(F)(F)F)cc12 [GW482059] )
0

###

// reported %Inh for each item listed
Tested on: DAPK3
Conditions: concentration: 1 μM, replicates: in singlicate; n = 1
Report the figure in % without appending any unit label.

// worked examples, %Inh included
# compound, %Inh (%)
measured = [
    ("Cc1ccccc1-c1cc(-c2c[nH]nc2-c2ccccn2)ccn1 [GW680061]", 25),
    ("CNc1nc(-c2ccc3c(N)n[nH]c3c2)cc(N2C[C@@H](C(=O)NC3CCCCC3)OC[C@H]2C)n1 [GSK2375584]", 40),
]

If you can, please state the reported %Inh value of CC(C)c1cc(-c2ccc3c(N)n[nH]c3c2)nc(N)n1 [GSK2250882] .
25

How about this compound: CS(=O)(=O)Cc1ccc(Nc2nccc(-c3c(-c4cccc(NC(=O)C5CCCCC5)c4)nn4ncccc34)n2)cc1 [GSK350559]
0

Note, next up: O=C(Nc1n[nH]c2nc(-c3ccco3)c(Br)cc12)C1CCN(Cc2ccccc2)C1.O=C(O)[C@H](O)[C@@H](O)C(=O)O (centres unmarked) [SB-742034]
17

Entry to check: Cc1cnc(N)c(/C=C/c2cncc(C(=O)NCCc3ccc(Cl)cc3Cl)c2)c1.Cl [GSK190937]
11

Here is the next compound: Cc1ccccc1Cn1ccn2c(=O)cc(N3CCOCC3)nc12 [GSK2269905]
0

Can you handle CC(C)c1ccc(O)cc1Nc1ccnc2ccc(C(F)(F)F)cc12 [GW482059] next?
0

###

Measured %Inh, listed per entry for reference.
Tested on: EPHA1
Conditions: concentration: 1 μM, replicates: in singlicate; n = 1
Please respond with the number in % and leave the unit unwritten.

May I ask what %Inh has been recorded for CNc1cc(-c2ccc3c(N)n[nH]c3c2)nc(N)n1 ?
9

Here is the next compound: COc1cccc(CNC(=O)NC2CCN(c3ccnc(Nc4ccc(F)cc4)n3)C2)c1 (stereo not drawn)
12

How about this compound: COC(=O)c1cccc(NC(=O)NC2CCN(c3ccnc(Nc4ccc(OC)cc4)n3)C2)c1 (stereo not drawn)
6

CNC(=O)c1ccc(C)c(-n2c(C)cc(OCc3ccc(F)cc3F)c(Br)c2=O)c1 ?
5

Also check COC(=O)C(NC(=O)NC1CCN(c2ccnc(Nc3ccc(F)cc3)n2)C1)c1ccccc1 (stereo not drawn)
10

Follow-up entry: O=C(Nc1n[nH]c2nc(-c3cccs3)c(Br)cc12)C1CC1
21

###

Entries and their %Inh
System: ZAP70
Details: concentration: 1 μM, replicates: in singlicate; n = 1
Number in %, nothing else.

Recorded results for 10 compounds are shown here.
# compound, %Inh (%)
rows = [
    ("Cc1ccc(NC(=O)Nc2ccccc2)cc1-c1ccc(C(=O)Nc2ccncc2)cc1 [GSK1398471]", 0),
    ("O=C1NC(=O)C(c2ccc(Cl)cc2)=C1Nc1cccc(Cl)c1 [SB-317651]", 5),
    ("COc1cccc(C2=C(Nc3cc(Cl)c(O)c(Cl)c3)C(=O)NC2=O)c1 [SB-390767]", 0),
    ("Cc1c(Cn2c(C)c(C)n3c(=O)cc(N4CCOCC4)nc23)cccc1C(F)(F)F [GSK2328680]", 0),
    ("Cc1ccccc1-c1cc(-c2c[nH]nc2-c2ccccn2)ccn1 [GW680061]", 0),
    ("CNc1cc(-c2ccc3c(N)n[nH]c3c2)nc(N)n1 [GSK2224810]", 0),
    ("COc1ccc(Nc2nccc(-c3ccc(NC(=O)c4cc5cc(F)ccc5[nH]4)cc3)n2)cc1 [GSK1229496]", 0),
    ("CS(=O)(=O)CCNCc1nc(-c2ccc3ncnc(Nc4ccc5c(cnn5Cc5ccccc5)c4)c3c2)cs1.Cl.Cl [GW569716]", 0),
    ("COc1ccc(Nc2nccc(N3CCC(NC(=O)c4cc5ccccc5s4)C3)n2)cc1 (stereo not drawn) [GSK1379738]", 0),
    ("COC(=O)C(Cc1ccccc1)NC(=O)NC1CCN(c2ccnc(Nc3ccc(F)cc3)n2)C1 (stereo not drawn) [GSK1379714]", 7),
]

For the compound COc1ccc(Nc2nccc(N3CCC(NC(=O)C(C)c4ccc(Cl)cc4)C3)n2)cc1 (stereo not drawn) [GSK1379735] , what %Inh is on record?
2

Could you do the same for Fc1ccc(-c2nc3n(c2-c2ccncc2)CCS3)cc1 [GI98581] , please?
0

And then c1ccc(-c2ccnc3[nH]ccc23)cc1 [SB-693578] , what is it?
55

Entry Nc1nccc(-c2c(-c3ccc(F)cc3)ncn2C2CCN(Cc3ccccc3)CC2)n1 [SB-219980] please
21

Field entry: CNc1nc(-c2ccc3c(N)n[nH]c3c2)cc(N2C[C@@H](C(=O)Nc3ccccc3)CC[C@H]2C)n1 [GSK2298859]
0

Please answer likewise for CNCc1ccc2nc(NC(=O)c3ccc(C(C)(C)C)cc3)cn2c1
15

###

Test system: PKN2
Details: concentration: 1 μM, replicates: in singlicate; n = 1
metric: %Inh (%)
Provide only the numeric value, understood in %.

# molecule, unit-string, %Inh
measured = [
    ("Cc1c(Cn2c(C)c(C)n3c(=O)cc(N4CCOCC4)nc23)cccc1C(F)(F)F", "%", 0),
    ("COc1cccc(CNC(=O)NC2CCN(c3ccnc(Nc4ccc(F)cc4)n3)C2)c1 (centres unmarked)", "%", 0),
    ("O=C1NC(=O)C(c2ccc(Cl)cc2)=C1Nc1ccc(O)cc1", "%", 12),
    ("Nc1ncnc2occ(-c3ccc4c(c3)CCN4C(=O)Cc3cc(F)ccc3F)c12", "%", 0),
    ("COC(=O)C(Cc1ccccc1)NC(=O)NC1CCN(c2ccnc(Nc3ccc(F)cc3)n2)C1 (centres unmarked)", "%", 0),
    ("CC[C@@H]1CO[C@H](C(=O)Nc2ccccc2)CN1c1cc(-c2ccc3c(N)n[nH]c3c2)nc(NC)n1", "%", 0),
    ("O=C(Nc1n[nH]c2nc(-c3cccs3)c(Br)cc12)C1CC1", "%", 0),
]

// switching to the query molecule
What value of %Inh has been reported for the following molecule? Cc1nccc(-c2c(-c3ccc(F)cc3)ncn2CCCN2CCOCC2)n1.Cl
1

###

Test system: FGFR4
Conditions: concentration: 1 μM, replicates: in singlicate; n = 1
metric: %Inh

# compound, %Inh
rows = [
    ("O=C(Nc1n[nH]c2cc(-c3ccsc3)ccc12)C1CC1 [SB-732932]", "0%"),
    ("COc1ccc(-c2coc3ccc(-c4nnc(C)o4)cc23)cc1", "0%"),
    ("CNc1nc(-c2ccc3c(N)n[nH]c3c2)cc(N2C[C@@H](C(=O)Nc3ccccc3)CC[C@H]2C)n1 [GSK2298859]", "0%"),
]

Fill in: %Inh of Nc1cccc(-c2ccc3c(N)n[nH]c3c2)n1 [GSK2192730] is ___
0%

And then c1ccc(-c2ccnc3[nH]ccc23)cc1 [SB-693578] , what is it?
13%

What about this compound? Cc1ccc(NC(=O)c2ccc(Cl)cc2)cc1-c1ccc(C(=O)Nc2ccncc2)cc1 [GSK1398467]
18%

Check CNc1cc(-c2ccc3c(N)n[nH]c3c2)nc(N)n1 [GSK2224810] too.
7%

What do we get for O=C1NC(=O)C(c2ccc(Cl)cc2)=C1Nc1cccc(Cl)c1 [SB-317651] ?
0%

###

Test system: MINK
Construct: gene MINK1
Details: concentration: 1 μM, replicates: in singlicate; n = 1
Measured %Inh, listed per entry for reference.
Answer as a quantity: numeral, then unit.

Some molecules with known %Inh results, for comparison:
# molecule, result
rows = [
    ("COc1ccc(Nc2nccc(N3CCC(NC(=O)C(C)c4ccc(Cl)cc4)C3)n2)cc1 (centres unmarked)", "1%"),
    ("CSc1ccc(-c2nc3n(c2-c2ccncc2)CCC3)cc1", "15%"),
    ("COc1ccc(Nc2nccc(N3CCC(NC(=O)c4cc5ccccc5s4)C3)n2)cc1 (centres unmarked)", "0%"),
]

Recorded %Inh for O=C(Nc1n[nH]c2nc(-c3ccco3)c(Br)cc12)C1CCN(Cc2ccccc2)C1.O=C(O)[C@H](O)[C@@H](O)C(=O)O (centres unmarked) , please?
15%

Let us now turn to CC(=O)c1cccc(NC(=O)NC2CCN(c3ccnc(Nc4ccc(F)cc4)n3)C2)c1 (centres unmarked)
11%

Please answer likewise for O=C1NC(=O)C(c2ccc(Cl)cc2)=C1Nc1ccc(O)cc1
11%

Subsequent entry: COC(=O)C(Cc1ccccc1)NC(=O)NC1CCN(c2ccnc(Nc3ccc(F)cc3)n2)C1 (centres unmarked)
2%

Input COc1cccc(CNC(=O)NC2CCN(c3ccnc(Nc4ccc(F)cc4)n3)C2)c1 (centres unmarked)
0%
